Reference for the values: ChEMBL document CHEMBL5506027

test: AUC(0 to 24 hrs) in mouse at 30 mg/kg, po measured upto 24 hrs by LC-MS/MS analysis; format: ADME, organism-based; details: in vivo
readout: AUC(0-t) at 24 h (ng·h/mL)
Give the quantity in ng·h/mL, number only.

Query: // query AUC(0-t) at 24 h value for entry `FC(F)c1c(Br)c(Br)cc2c1nc(N1CCNCC1)n2C1CCOCC1`
Response: 23900

---

molecular target: Serine/threonine-protein kinase pim-2 (Homo sapiens)
Sequence (Q9P1W9 whole entry): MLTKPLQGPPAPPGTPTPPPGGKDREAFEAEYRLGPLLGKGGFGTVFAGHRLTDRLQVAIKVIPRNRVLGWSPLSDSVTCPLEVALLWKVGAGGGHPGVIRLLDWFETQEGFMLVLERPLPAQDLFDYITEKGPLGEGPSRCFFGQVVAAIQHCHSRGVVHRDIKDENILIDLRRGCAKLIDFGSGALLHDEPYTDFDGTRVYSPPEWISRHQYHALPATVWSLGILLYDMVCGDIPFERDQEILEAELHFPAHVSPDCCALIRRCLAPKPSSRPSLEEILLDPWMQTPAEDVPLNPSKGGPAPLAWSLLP
readout: IC50 (nM)
Give the quantity in nM, number only.

Query: // query IC50 value for entry Cc1c(Br)c(Br)c2c3c1nc(N1CCNCC1)n3CCC2 [SEL-120 FREE BASE]
Response: 298
